# assay: NOD1 signaling inhibitors, primary screen, cell-based, luminescence, uHTS (AID 1578);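 also: HEK-293T reporter cells stimulated with the NOD1 agonist gamma-tri-DAP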
# assay-context: NOD1-driven NF-kB luciferase reporter cells, at 4 µM, hits give high values
Screen size: about 290,000 compounds; about 3,000 (1%) were called active. This excerpt belongs to a sample that is enriched for actives.
Outcome label depends on inhibition relative to -10%: at/above gives Fulfilled, below gives Not fulfilled.

Task: Determine whether measured inhibition meets or exceeds -10% for "CC(=O)N(c1ccc(N(C(C)=O)S(=O)(=O)c2cccs2)cc1)S(=O)(=O)c1cccs1"
Output: Fulfilled

Task: Determine whether measured inhibition meets or exceeds -10% for "CCCNC(=O)CN1C(=O)COc2ccc(S(=O)(=O)N3CCCCCC3)cc21"
Output: Not fulfilled

Task: Determine whether measured inhibition meets or exceeds -10% for COc1ccc(C2CC(c3cccs3)=NN2c2nc(-c3ccccc3)cs2)cc1OC (stereo not drawn)
Output: Not fulfilled

Task: Determine whether measured inhibition meets or exceeds -10% for "O=C(/C=C/c1ccccc1)Nc1cc(C(=O)O)cc(C(=O)O)c1"
Output: Not fulfilled

Task: Determine whether measured inhibition meets or exceeds -10% for "Cc1cc(OCCCCn2ccnc2)cc(C)c1Cl"
Output: Not fulfilled

Task: Determine whether measured inhibition meets or exceeds -10% for CSc1ccc(C(=O)C2CCCN(C(=O)CN3CCOC3=O)C2)cc1 (stereo not drawn)
Output: Not fulfilled

Task: Determine whether measured inhibition meets or exceeds -10% for "Cc1ccc(C(=O)COC(=O)c2cc(Cl)nc3ccccc23)cc1"
Output: Not fulfilled

Task: Determine whether measured inhibition meets or exceeds -10% for O=C(CCl)N(c1ccccc1)C1CCS(=O)(=O)C1 (stereo not drawn)
Output: Fulfilled

Task: Determine whether measured inhibition meets or exceeds -10% for "O=C(/C=C/c1ccccc1)Nc1cc(NC(=O)/C=C/c2ccccc2)cc(C(=O)O)c1"
Output: Not fulfilled

Task: Determine whether measured inhibition meets or exceeds -10% for "O=C(Cc1ccccc1)NNC(=O)Nc1ccccc1"
Output: Not fulfilled

Task: Determine whether measured inhibition meets or exceeds -10% for "O=C(NCc1ccccc1)c1ccc(Cn2cc(C(F)(F)F)ccc2=O)cc1"
Output: Fulfilled

Task: Determine whether measured inhibition meets or exceeds -10% for "Cc1cc(C)cc(C(=O)NCC(=O)NCc2ccc(S(N)(=O)=O)cc2)c1"
Output: Fulfilled

Task: Determine whether measured inhibition meets or exceeds -10% for "CC(=O)Nc1ccc(C(=O)N/C(=C/c2ccccc2)C(=O)Nc2cccc(C(=O)O)c2)cc1"
Output: Not fulfilled

Task: Determine whether measured inhibition meets or exceeds -10% for COc1cc(O)cc2cc3c(c(O)c12)C(=O)CC(C)(O)O3 (stereo not drawn)
Output: Fulfilled

Task: Determine whether measured inhibition meets or exceeds -10% for "CC(=O)Nc1cccc(C(=O)/C=C/c2ccc(/C=C/C(=O)c3cccc(NC(C)=O)c3)cc2)c1"
Output: Fulfilled

Task: Determine whether measured inhibition meets or exceeds -10% for Fc1ccccc1/C=C1\CCCC2=C1Nc1nnnn1C2c1ccccc1F (stereo not drawn)
Output: Fulfilled

Task: Determine whether measured inhibition meets or exceeds -10% for "CC(=O)Nc1cccc(NC(=O)CSc2nc3ccccc3o2)c1"
Output: Fulfilled

Task: Determine whether measured inhibition meets or exceeds -10% for "COc1ccc(C(=O)N/N=C/c2ccc(OC)c(COc3ccccc3)c2)cc1"
Output: Fulfilled

Task: Determine whether measured inhibition meets or exceeds -10% for "COc1cc(O)c2c(c1)OC(C)(C)CC2=O"
Output: Fulfilled

Task: Determine whether measured inhibition meets or exceeds -10% for "Cc1nc(NC(=O)/C=C/c2ccccc2)n[nH]1"
Output: Fulfilled

Task: Determine whether measured inhibition meets or exceeds -10% for "Cc1cc(OCCCn2ccnc2)cc(C)c1Cl"
Output: Fulfilled

Task: Determine whether measured inhibition meets or exceeds -10% for "COc1ccc(C(=O)N/N=C/c2ccc(OC)c(COc3ccc(F)cc3F)c2)cc1"
Output: Fulfilled

Task: Determine whether measured inhibition meets or exceeds -10% for "O=C(Cc1ccccc1)NCC(=O)N1CCN(c2ccccc2)CC1"
Output: Not fulfilled

Task: Determine whether measured inhibition meets or exceeds -10% for "CC(=O)Nc1cccc(C(=O)/C=C/c2ccc(C)cc2)c1"
Output: Fulfilled

Task: Determine whether measured inhibition meets or exceeds -10% for "CCn1c(=O)c(C(=O)NCc2ccccc2)c(O)c2ccccc21"
Output: Not fulfilled

Task: Determine whether measured inhibition meets or exceeds -10% for C(=C1/CCCC2=C1Nc1ncnn1C2c1ccccc1)/c1ccccc1 (stereo not drawn)
Output: Fulfilled

Task: Determine whether measured inhibition meets or exceeds -10% for CCOc1ccc(NC(=O)CC(NCc2ccccn2)C(=O)O)cc1 (stereo not drawn)
Output: Fulfilled

Task: Determine whether measured inhibition meets or exceeds -10% for "O=C(/C=C/c1ccccc1)Nc1ncn[nH]1"
Output: Fulfilled

Task: Determine whether measured inhibition meets or exceeds -10% for "CN(C)CCOc1cccc(Cl)c1"
Output: Not fulfilled

Task: Determine whether measured inhibition meets or exceeds -10% for "Cc1nn(-c2ccccc2)c(C)c1NC(=O)COc1ccc(C#N)cc1"
Output: Not fulfilled

Task: Determine whether measured inhibition meets or exceeds -10% for "CC1(C)CC(=O)c2c(O)cc(O)cc2O1"
Output: Not fulfilled

Task: Determine whether measured inhibition meets or exceeds -10% for CC(NC(=O)CSc1ncn[nH]1)c1ccc(Cl)cc1Cl (stereo not drawn)
Output: Not fulfilled

Task: Determine whether measured inhibition meets or exceeds -10% for "COc1ccc(/C=N/NC(=O)c2cc(C(C)(C)C)[nH]n2)cc1COc1ccc(F)cc1F"
Output: Fulfilled

Task: Determine whether measured inhibition meets or exceeds -10% for "COC(=O)c1cc2sc(Cl)cc2n1CC(=O)Nc1cccc(SC)c1"
Output: Fulfilled

Task: Determine whether measured inhibition meets or exceeds -10% for "COc1cccc(-n2c([S-])c(C(=O)Nc3ccc(C(F)(F)F)cc3)[n+]3ccccc23)c1"
Output: Fulfilled

Task: Determine whether measured inhibition meets or exceeds -10% for "Cc1cc(OCCCCCn2ccnc2)cc(C)c1Cl"
Output: Fulfilled

Task: Determine whether measured inhibition meets or exceeds -10% for "O=[N+]([O-])c1ccc(-c2ccc(/C=N/Nc3nc(N4CCCC4)nc(N4CCCC4)n3)o2)cc1"
Output: Not fulfilled
